Entry source: ChEMBL document CHEMBL3045992

Entries and their measured Activity follow.
- measurementDescription: Antitumor activity against Mus musculus (mouse) DLA cells transplanted in Swiss albino mouse assessed as decrease in aspartate amino transferase level at 50 mg/kg, ip qd administered 24 hr post tumor transplantation for 14 days measured on day 14 (reference value: 85.6 +/- 2.72 U/L)
- Assay type: functional
- conditionsUsed: route intraperitoneal
attributeMeasured: Activity (U/L)

mol: CN(C)c1ccc(/C=C/C(=C2C(=O)NC(=O)NC2=O)c2nc3ccccc3[nH]2)cc1
endpointValue: 73.4
--
mol: O=C1NC(=O)C(=C(/C=C/c2ccccc2)c2nc3ccccc3[nH]2)C(=O)N1
endpointValue: 77.6
--
mol: O=C1NC(=O)C(=C(/C=C/c2ccc(Cl)cc2)c2nc3ccccc3[nH]2)C(=O)N1
endpointValue: 76.52
--
mol: O=C1NC(=O)C(=C(/C=C/c2cccc([N+](=O)[O-])c2)c2nc3ccccc3[nH]2)C(=O)N1
endpointValue: 72.6
--
mol: O=C1NC(=O)C(=C(/C=C/c2ccccc2O)c2nc3ccccc3[nH]2)C(=O)N1
endpointValue: 75.4
--
mol: COc1ccc(/C=C/C(=C2C(=O)NC(=O)NC2=O)c2nc3ccccc3[nH]2)cc1
endpointValue: 75.62

====

- measurementDescription: Antitumor activity against Mus musculus (mouse) DLA cells transplanted in Swiss albino mouse assessed as decrease in packed cell volume at 50 mg/kg, ip qd administered 24 hr post tumor transplantation for 14 days measured on day 14 (reference value: 30.55 +/- 3.52%)
- Format: functional
- Parameters: scale not given: the % may be the effect or the level left
- conditionsUsed: route intraperitoneal
The entries below are paired with their reported Activity.

mol: O=C1NC(=O)C(=C(/C=C/c2cccc([N+](=O)[O-])c2)c2nc3ccccc3[nH]2)C(=O)N1
scaleUnit: %
Activity: 20.48
//
mol: CN(C)c1ccc(/C=C/C(=C2C(=O)NC(=O)NC2=O)c2nc3ccccc3[nH]2)cc1
scaleUnit: %
Activity: 22.42
//
mol: O=C1NC(=O)C(=C(/C=C/c2ccc(Cl)cc2)c2nc3ccccc3[nH]2)C(=O)N1
scaleUnit: %
Activity: 23.1
//
mol: COc1ccc(/C=C/C(=C2C(=O)NC(=O)NC2=O)c2nc3ccccc3[nH]2)cc1
scaleUnit: %
Activity: 22.9
//
mol: O=C1NC(=O)C(=C(/C=C/c2ccccc2)c2nc3ccccc3[nH]2)C(=O)N1
scaleUnit: %
Activity: 24.1
//
mol: O=C1NC(=O)C(=C(/C=C/c2ccccc2O)c2nc3ccccc3[nH]2)C(=O)N1
scaleUnit: %
Activity: 23.68

====

- measurementDescription: Antitumor activity against Mus musculus (mouse) DLA cells transplanted in Swiss albino mouse assessed as decrease in triglyceride level at 50 mg/kg, ip qd administered 24 hr post tumor transplantation for 14 days measured on day 14 (reference value: 210.12 +/- 4.65 mg/dl)
- Type: functional
- conditionsUsed: route intraperitoneal

mol: COc1ccc(/C=C/C(=C2C(=O)NC(=O)NC2=O)c2nc3ccccc3[nH]2)cc1
Activity (mg/dL): 170.6
//
mol: O=C1NC(=O)C(=C(/C=C/c2cccc([N+](=O)[O-])c2)c2nc3ccccc3[nH]2)C(=O)N1
Activity (mg/dL): 168.7
//
mol: O=C1NC(=O)C(=C(/C=C/c2ccccc2)c2nc3ccccc3[nH]2)C(=O)N1
Activity (mg/dL): 186.85
//
mol: CN(C)c1ccc(/C=C/C(=C2C(=O)NC(=O)NC2=O)c2nc3ccccc3[nH]2)cc1
Activity (mg/dL): 172.4
//
mol: O=C1NC(=O)C(=C(/C=C/c2ccc(Cl)cc2)c2nc3ccccc3[nH]2)C(=O)N1
Activity (mg/dL): 182.5
//
mol: O=C1NC(=O)C(=C(/C=C/c2ccccc2O)c2nc3ccccc3[nH]2)C(=O)N1
Activity (mg/dL): 178.7

====

- measurementDescription: Antitumor activity against Mus musculus (mouse) DLA cells transplanted in Swiss albino mouse assessed as decrease in total WBC count measured 10^3 cells at 50 mg/kg, ip qd administered 24 hr post tumor transplantation for 14 days measured on day 14 (reference value: 14.40 +/- 2.5 ml)
- Type: functional
- Parameters: unit not given here
- conditionsUsed: route intraperitoneal

mol: O=C1NC(=O)C(=C(/C=C/c2ccccc2)c2nc3ccccc3[nH]2)C(=O)N1
Activity: 13.8

mol: COc1ccc(/C=C/C(=C2C(=O)NC(=O)NC2=O)c2nc3ccccc3[nH]2)cc1
Activity: 12.55

mol: O=C1NC(=O)C(=C(/C=C/c2cccc([N+](=O)[O-])c2)c2nc3ccccc3[nH]2)C(=O)N1
Activity: 12.45

mol: CN(C)c1ccc(/C=C/C(=C2C(=O)NC(=O)NC2=O)c2nc3ccccc3[nH]2)cc1
Activity: 12.5

mol: O=C1NC(=O)C(=C(/C=C/c2ccccc2O)c2nc3ccccc3[nH]2)C(=O)N1
Activity: 13.45

mol: O=C1NC(=O)C(=C(/C=C/c2ccc(Cl)cc2)c2nc3ccccc3[nH]2)C(=O)N1
Activity: 12.7
